target-desc: T1, His-tagged human CD47-ECD protein (CD47-His) (human, UniProt Q08722 19-139)
T1 construct: Expressed in HEK293F cells; also called CD47-His antigen
T1 sequence (Q08722 other isoform, or with tags, fused parts or gaps): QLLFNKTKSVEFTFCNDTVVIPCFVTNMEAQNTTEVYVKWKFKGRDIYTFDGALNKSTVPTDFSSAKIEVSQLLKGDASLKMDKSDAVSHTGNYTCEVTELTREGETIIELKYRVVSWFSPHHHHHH
procedure-summary: competitive ELISA on coated CD47-His (2 µg/mL); blocked ligand SIRPα-Fc-Bio (0.1 µg/mL), HRP-streptavidin, OD450; value is parameter C of the printed 4-parameter fit
Below: a set of entries, each annotated with reported IC50.
Give the number; µg/mL is assumed, so skip it.

binder="Antibody 3-6 (antibody, human IgG1, kappa, V domains shown, Full-length IgG1) VH: QVQLQESGPGLVKPSETLSLTCTVSGGSLDNYYWSWIRQPPGKGLEWIGYIYYSGNTNYNPSLKSRVTISVDTSKNQFSLRLRSVTAADTAVYYCARGGRIFAGYWGQGTLVTVSS VL: DIQMTQSPSSVSASVGDRVTISCRANQAIGTWLAWYQQKPGKAPKLLIYAASTLQSGVPSRFSGSGSGTEFTLTISSLQAEDVAVYYCQQYYTTPLTFGGGTKLEIKR" reading_unit=µg/mL reported_result=1.12
binder="Antibody 3-3 (antibody, human IgG1, kappa, V domains shown, Full-length IgG1) VH: QVQLQESGPGLVKPSETLSLTCTVSGGSLDNYYWSWIRQPPGKGLEWIGYIYYSGNTNYNPSLKSRVTISVDTSKNQFSLRLRSVTAADTAVYYCARGGRIFGGYWGQGTLVTVSS VL: DIQMTQSPSSVSASVGDRVTISCRANQAIGTWLAWYQQKPGKAPKLLIYAASTLQSGVPSRFSGSGSGTEFTLTISSLQAEDVAVYYCQQYYTTPLTFGGGTKLEIKR" reading_unit=µg/mL reported_result=0.939

Inquiry: What value of IC50 has been reported for the following binder? Antibody 6 (antibody, human IgG1, kappa, V domains shown, Full-length IgG1) VH: QVQLQESGPGLVKPSETLSLTCTVSGGSLNDYYWSWIRQPPGKGLEWIGRIYGNGDTNYNPSLKSRVTISVDTSKNQFSLRLRSVTAADTAVYYCARGGRILAGYWGQGTLVTVSS VL: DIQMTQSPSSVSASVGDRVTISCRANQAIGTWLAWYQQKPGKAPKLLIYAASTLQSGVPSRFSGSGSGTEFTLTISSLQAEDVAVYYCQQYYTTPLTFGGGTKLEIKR
Reply text: 1.1
